- experimental details: Cytotoxicity test (MTT)
- assay context: mouse, L929 cells
recorded endpoint: CC50 at 48 h (µg/mL)

[[record]]
compound = "CCOC(=O)c1ccc(O)c(O)c1 [NP31, ethyl 3,4-dihydroxybenzoate]"
readout_number = 100

[[record]]
compound = "CCOC(=O)c1cc(O)cc(O)c1 [NP37, ethyl 3,5-dihydroxybenzoate]"
readout_number = 150

[[record]]
compound = "O=C(O)c1cc(O)ccc1O [NP23, 2,5-dihydroxybenzoic acid]"
readout_number = 200

[[record]]
compound = "O=C(O)c1cccc(O)c1O [NP21, 2,3-dihydroxybenzoic acid]"
readout_number = 150

[[record]]
compound = "COC(=O)c1ccc(O)cc1O [NP34, methyl 2,4-dihydroxybenzoate]"
readout_number = 150

[[record]]
compound = "CCOC(=O)c1cc(O)ccc1O [NP35, ethyl 2,5-dihydroxybenzoate]"
readout_number = 150

[[record]]
compound = "O=C(O)c1cc(O)cc(O)c1 [NP32, 3,5-dihydroxybenzoic acid]"
readout_number = 150

[[record]]
compound = "CCOC(=O)c1ccc(O)cc1O [NP33, ethyl 2,4-dihydroxybenzoate]"
readout_number = 100

[[record]]
compound = "CCOC(=O)c1c(O)cccc1O [NP36, ethyl 2,6-dihydroxybenzoate]"
readout_number = 200


----------
- System: MC3T3-E1 cells
- experimental details: Alkaline phosphatase (ALP) activity of osteoblasts
- Type: cell-based
- assay context: Mus musculus, 168 h, compound 5 μg/ml, 7 days, relative to negative control (100)
The compounds listed here are annotated with their activity at 5 µg/mL.
recorded endpoint: activity at 5 µg/mL

[[record]]
compound = "O=C(O)c1cccc(O)c1O [NP21, 2,3-dihydroxybenzoic acid]"
subject_of_test = "MC3T3-E1 cells"
result = "147%"

[[record]]
compound = "CCOC(=O)c1ccc(O)c(O)c1 [NP31, ethyl 3,4-dihydroxybenzoate]"
subject_of_test = "MC3T3-E1 cells"
result = "200%"

[[record]]
compound = "CCOC(=O)c1cc(O)ccc1O [NP35, ethyl 2,5-dihydroxybenzoate]"
subject_of_test = "MC3T3-E1 cells"
result = "560%"

[[record]]
compound = "CCOC(=O)c1cc(O)cc(O)c1 [NP37, ethyl 3,5-dihydroxybenzoate]"
subject_of_test = "MC3T3-E1 cells"
result = "153%"

[[record]]
compound = "O=C(O)c1ccc(O)cc1O [NP22, 2,4-dihydroxybenzoic acid]"
subject_of_test = "MC3T3-E1 cells"
result = "153%"


----------
- experimental details: in vitro
- assay context: mouse
recorded endpoint: CC50 at 48 h (µg/mL)

[[record]]
compound = "O=C(O)c1ccc(O)cc1O [NP22, 2,4-dihydroxybenzoic acid]"
readout_number = 150

